- Protocol Notes: chemical genetic growth profiling, strain panel (AID 1159580);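 further: tested at 20 µM; growth read once vehicle control cultures reached saturation at 30 °C; lower values mean less growth of the strain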
- Particulars: S. cerevisiae deletion strains, growth OD, locus YER015W, strain faa2
In all, about 5,500 compounds went through this assay and about 2,000 (36%) were called active. About 18% were inconclusive and are not listed. No stated cut-off is given here; in the data, active means normalized growth mostly below about 0.91 (no sharp cut-off); inconclusive means no clear call, values can overlap the other calls; inactive means mostly above about 0.92. This is one part of the list.
# output must be one of Yes for active, No for inactive

Task: // outcome(item) with item = COC(=O)[C@@H]1OC(=O)C2OC23[C@@]1(C)CCC1[C@@]2(C)CCC(=O)C(C)(C)C2C[C@@H](OC(C)=O)[C@]13C (some centres undefined)
Result: No

Task: Which result was noted for this molecule in the test: COc1ccc2nc(S(=O)Cc3ncc(C)c(OC)c3C)[nH]c2c1 (centres undefined)
Result: No

Task: # fetch the recorded call for CCCn1c(=O)c2[nH]c(C3CCCC3)nc2n(CCC)c1=O here
Result: No

Task: Tell me the recorded outcome of this test for C=NC(C(=O)NC1C(=O)N2C1SC(C)(C)C2C(=O)O)c1ccccc1 (centres undefined) .
Result: No

Task: Which outcome was entered for the molecule COP(=S)(OC)Oc1ccc([N+](=O)[O-])cc1 in this test?
Result: No

Task: Dear colleague, could you share the recorded outcome for Cc1cccc(C)c1NC(=O)C1CCCCN1C (centres undefined) when you have a moment?
Result: No

Task: What outcome does the record of this test show for Clc1ccc(C(c2ccccc2Cl)C(Cl)Cl)cc1 (centres undefined) ?
Result: No

Task: Kindly provide the recorded test outcome for the following molecule: COC1C=CC23c4cc5c(cc4CN(CC2O)[C@@H]3C1)OCO5 (some centres undefined)
Result: No

Task: Dear all, I need the recorded test outcome for Cc1onc(-c2ccccc2)c1-c1ccc(S(N)(=O)=O)cc1 , thank you.
Result: No

Task: Fill in: this test's call for COP(=S)(OC)Oc1ccc(Sc2ccc(OP(=S)(OC)OC)cc2)cc1 is ___
Result: No

Task: Hey, what did the test say about O=C(O)CCCCCCCC(=O)O ?
Result: No

Task: What outcome does the record of this test show for O=c1[nH]c(=O)n(C2C[C@H](O)[C@@H](CO)O2)cc1C(F)(F)F (some centres undefined) ?
Result: No

Task: Answer briefly: the call reported for CN1CCC[C@@H]1CCO[C@](C)(c1ccccc1)c1ccc(Cl)cc1 in this assay.
Result: Yes

Task: Hi team, can someone confirm the assay call for O=c1oc2ccccc2cc1O ?
Result: No

Task: Name the outcome recorded for CCC(C)C(=O)c1c(O)c(C)c2oc3c(C)c(O)c(C(=O)C(C)CC)c(O)c3c2c1O (centres undefined) in the assay.
Result: No

Task: Look up the recorded call for FC(F)(F)c1cccc(N2CCNCC2)c1 in this test.
Result: No

Task: Test call, this molecule: COc1ccc(-c2oc3cc(OC)c(OC)c(OC)c3c(=O)c2OC)cc1
Result: No

Task: For CN[C@@H]1C(OC2[C@H](O[C@H]3[C@H](O)[C@@H](O)[C@H](N=C(N)N)[C@@H](O)[C@@H]3N=C(N)N)OC(C)[C@]2(O)CO)OC(CO)C(O)C1O (some centres undefined) , what call appears in the results of this test?
Result: No

Task: Please indicate how the test categorized Cc1nnc(NS(=O)(=O)c2ccc(N)cc2)s1 .
Result: No

Task: Short answer needed: outcome of this test for Cc1oncc1C(=O)Nc1ccc(C(F)(F)F)cc1 ?
Result: No

Task: Assay outcome for NC(N)=NCCCCN=C(N)N : what was it?
Result: No

Task: Each molecule tested received a call. Report the one for NCCCCCC(=O)O .
Result: No

Task: Any idea what this test logged for CC12CCCCC1(Br)[N+](=O)N2[O-] (centres undefined) ?
Result: No

Task: Per the assay record, what outcome was assigned to COc1ccc2oc3ccccc3c(=O)c2c1 ?
Result: No
